Assay: Brain penetration (brain to plasma ratio)
Assay type: in vivo
Conditions: brain

SMILES DATA	Kp
CN1CCN(Cc2ccc(C(=O)Nc3cnn4ccc(N5CCC[C@@H]5c5cc(F)ccc5F)nc34)cc2)CC1	5.47
